# Conditions used: in acetone, 298.15 K
Attribute measured: solubility (mole fraction)
Could you keep your reply to the number by itself?

In: Consider the molecule shown here: CC(=O)OC(c1ccccc1)C(Cl)(Cl)Cl (stereo unspecified) What is its recorded solubility (mole fraction)?
Out: 0.133

* * *

# Conditions used: in ethyl acetate, 308.15 K
Attribute measured: solubility (mole fraction)
Could you keep your reply to the number by itself?

In: Consider the compound shown here: CC(=O)OC(c1ccccc1)C(Cl)(Cl)Cl (stereo unspecified) What is its recorded solubility (mole fraction)?
Out: 0.218

* * *

# Conditions used: in methanol, 288.15 K
Attribute measured: solubility (mole fraction)

In: Consider the compound shown here: CC(=O)OC(c1ccccc1)C(Cl)(Cl)Cl (stereo unspecified) What is its recorded solubility (mole fraction)?
Out: 0.00659

* * *

# Conditions used: in ethanol, 328.15 K
Attribute measured: solubility (mole fraction)
Could you keep your reply to the number by itself?

In: Consider the compound shown here: CC(=O)OC(c1ccccc1)C(Cl)(Cl)Cl (stereo unspecified) What is its recorded solubility (mole fraction)?
Out: 0.0735

* * *

# Conditions used: in acetonitrile, 318.15 K
Attribute measured: solubility (mole fraction)

In: Consider the compound shown here: CC(=O)OC(c1ccccc1)C(Cl)(Cl)Cl (stereo unspecified) What is its recorded solubility (mole fraction)?
Out: 0.168

* * *

# Conditions used: in isopropanol, 328.15 K
Attribute measured: solubility (mole fraction)
Could you keep your reply to the number by itself?

In: Consider the molecule shown here: CC(=O)OC(c1ccccc1)C(Cl)(Cl)Cl (stereo unspecified) What is its recorded solubility (mole fraction)?
Out: 0.0742

* * *

# Conditions used: in isopropanol, 323.15 K
Attribute measured: solubility (mole fraction)

In: Consider the compound shown here: CC(=O)OC(c1ccccc1)C(Cl)(Cl)Cl (stereo unspecified) What is its recorded solubility (mole fraction)?
Out: 0.0538

* * *

# Conditions used: in acetonitrile, 323.15 K
Attribute measured: solubility (mole fraction)
Could you keep your reply to the number by itself?

In: Consider the compound shown here: CC(=O)OC(c1ccccc1)C(Cl)(Cl)Cl (stereo unspecified) What is its recorded solubility (mole fraction)?
Out: 0.218

* * *

# Conditions used: in n-propanol, 288.15 K
Attribute measured: solubility (mole fraction)
Could you keep your reply to the number by itself?

In: Consider the compound shown here: CC(=O)OC(c1ccccc1)C(Cl)(Cl)Cl (stereo unspecified) What is its recorded solubility (mole fraction)?
Out: 0.0105

* * *

# Conditions used: in acetic acid, 288.15 K
Attribute measured: solubility (mole fraction)
Could you keep your reply to the number by itself?

In: Consider the molecule shown here: CC(=O)OC(c1ccccc1)C(Cl)(Cl)Cl (stereo unspecified) What is its recorded solubility (mole fraction)?
Out: 0.0201

* * *

# Conditions used: in acetone, 328.15 K
Attribute measured: solubility (mole fraction)
Could you keep your reply to the number by itself?

In: Consider the compound shown here: CC(=O)OC(c1ccccc1)C(Cl)(Cl)Cl (stereo unspecified) What is its recorded solubility (mole fraction)?
Out: 0.377

* * *

# Conditions used: in ethyl formate, 303.15 K
Attribute measured: solubility (mole fraction)
Could you keep your reply to the number by itself?

In: Consider the compound shown here: CC(=O)OC(c1ccccc1)C(Cl)(Cl)Cl (stereo unspecified) What is its recorded solubility (mole fraction)?
Out: 0.165

* * *

# Conditions used: in ethyl formate, 288.15 K
Attribute measured: solubility (mole fraction)

In: Consider the compound shown here: CC(=O)OC(c1ccccc1)C(Cl)(Cl)Cl (stereo unspecified) What is its recorded solubility (mole fraction)?
Out: 0.0868
